Experiment: yeast display, Sf9 membrane polyspecificity reagent, FACS + sequencing; frameworks hold sequencing errors
property-measured: polyreactivity (PSR sort gate)

• QVKLVESGGGLVQAGGSLRLSCAASGSIFPHYAMGWYRQAPGKERELVAAISRGGSTNYADSVKGRFTISRDNAKNTVYLQMNSLKPEDTAVYYCNALRYYSRFLYAVAYRYDYWGQGSQVTVSS = high polyreactivity
• QVQLVESGGGLVQAGGSLRLSCAASAIIFYTYAMGWYRQAPGKERELVAAISSGGRTTYADSVKGRFTISRDNAKTTVYFQMNSLKPEDTAVYYCAARLFRSRHAASPFIRSIYGYWGQGTQVTVSS = high polyreactivity
• QVQLVESGGGLVQAGGSLRLSCAASGFIFDTYAMGWYRQAHGKERELVAAIRWSGGRTYYGDSVKGRFTISRDNAKNTVYLQMNSMKPEDTAVYYCNVVVRYPYAYDYWGQGTQVTVSS = high polyreactivity
• QVQLVESGGGLVQAGGSLRLSCAASGRIFTFYAMGWYRQAPGKERELVARISKRGGSTYYADSVKGRFTISRDYAKNTVYLQRNSLKPEDTAVYYCAKAYDPTTYDYWGQGTQVTVSS = high polyreactivity
• QVQLVESGGGLVQAGGSLRLSCPASGGTFSFYTMGGYRQSPGKEREWVAAIDSTGRTNYADSVKGRFTISRDYPKNTVYLQMNRLIPEDTAVYYCAAVSPTYPYTFYRYNYWGQGTQVTVSS = low polyreactivity
• QVQLVESGGGLVQAGGSLRLSCAASGRIFYQNTMGWYRQAPGKERELVASISTTGGNTYYADSVKGRFTISRDNAKNTVYLQMNSLKPEDTAVYYCNAVRSVYLYGYIYGVDYWGQGTQVTVSS = low polyreactivity
• QVQLVESGGGLFQAGGSLRLSCAASGLTFGGNAMGWYRHAPGKERELVAAISSGGSTNYADSVKGRFTISRDNAKNTVYLQMNSLKPEDTAVYYCAVEAWSVPPYDYWGQGTQVTVSS = low polyreactivity
• QVQLVESGGGLLQAGGSLRLSCAASGRTFYKNAMGWYRHAPRKERELVAAITSGGSTNYADSVKGRFTISRDNAKNSVYLQMNSLKSEDTAVSACAAQLFPYYRSRYSYINNYDYSGQGTQVTVSS = high polyreactivity
• QVQLVESGGGLVQAGGSLRLSCAASGRIFSYNAMGWYRQAPGKERELVAAISYRGGSTYYADSVKGRFTISRDNAKNTVYLQMNSLNPEDTAVYYCNAEAYYPYGYDYWGQGTQVTVSS = low polyreactivity
• QVQLVESGGGLVQAGGSLRLSCDASGSIFLVYAMGWYRQAPGKERELVAAITSGGSTNYADSVKGRFTISRDNAKNTVYFQMNSLKPEDTAVYNCAAERGDTAYRKYDYWGQGTQVTVSS = low polyreactivity
• QVQLVESGGGLVQAGGSLRLSCAASGRTCGGYAMGWYRQEPGNERELVAAISYRGARTYYADSVKGRFTISRDNAKNTVYLQMNSRKPEDTAVYYCAASRPGLRTPGQMGYWGQGTQVTVSS = high polyreactivity
• QVQLVESGGGLVQAGGSLRLSCAASGFTFKYYAMGWYRQAPGKERELVASISYSGGRTSYADSVKGRFTISRDNAKNTVYLQMNSLKPEDTAVYYCNADVRRIDYKSRQYDYWGQGTQVTVSS = high polyreactivity
• QVQLVESGGGLVQAGGSLRLSCAASGSTFGSNALGWYREAPAKERELVAAIDANCGSTYYADSVKGRFTISRDNAKNTVYLQMHSQKQEDTAVYYCAAAGYCYYYVPNDYWGQGTQVTVSS = low polyreactivity
